B1: TNF receptor-associated factor 1 (Homo sapiens), Q13077 (parent)
chain: MASSSGSSPRPAPDENEFPFGCPPTVCQDPKEPRALCCAGCLSENPRNGEDQICPKCRGEDLQSISPGSRLRTQEKAHPEVAEAGIGCPFAGVGCSFKGSPQSVQEHEVTSQTSHLNLLLGFMKQWKARLGCGLESGPMALEQNLSDLQLQAAVEVAGDLEVDCYRAPCSESQEELALQHFMKEKLLAELEGKLRVFENIVAVLNKEVEASHLALATSIHQSQLDRERILSLEQRVVELQQTLAQKDQALGKLEQSLRLMEEASFDGTFLWKITNVTRRCHESACGRTVSLFSPAFYTAKYGYKLCLRLYLNGDGTGKRTHLSLFIVIMRGEYDALLPWPFRNKVTFMLLDQNNREHAIDAFRPDLSSASFQRPQSETNVASGCPLFFPLSKLQSPKHAYVKDDTMFLKCIVETST

variants of: B1; conditions: with traf2_human TRAF2, Q12933
Sequence (Q12933 whole entry): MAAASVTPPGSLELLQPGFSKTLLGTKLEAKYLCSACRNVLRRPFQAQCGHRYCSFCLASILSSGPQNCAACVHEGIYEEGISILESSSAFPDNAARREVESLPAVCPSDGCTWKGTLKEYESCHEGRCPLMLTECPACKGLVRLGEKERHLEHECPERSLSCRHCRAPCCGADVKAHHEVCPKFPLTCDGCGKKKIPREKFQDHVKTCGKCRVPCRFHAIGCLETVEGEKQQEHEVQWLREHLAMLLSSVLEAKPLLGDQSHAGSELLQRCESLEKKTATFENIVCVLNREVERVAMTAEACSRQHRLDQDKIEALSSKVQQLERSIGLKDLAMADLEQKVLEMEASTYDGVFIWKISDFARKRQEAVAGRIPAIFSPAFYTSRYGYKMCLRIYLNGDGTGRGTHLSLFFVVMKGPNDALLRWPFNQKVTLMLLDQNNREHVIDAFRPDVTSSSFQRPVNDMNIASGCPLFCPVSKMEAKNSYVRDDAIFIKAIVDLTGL
observation.type: effect of a mutation on the interaction

Check out these entries, answers already filled in.
Per the records, this variant ( R228H ) has effect of a mutation on the interaction equal to with no effect

Lab note: R228C gave effect of a mutation on the interaction of with no effect

Reported effect of a mutation on the interaction for K193R was with no effect

The recorded effect of a mutation on the interaction for entry R226H equals with no effect

Recorded result, V208M , effect of a mutation on the interaction: with no effect

For the next question, use this variant.
Note to self: effect of a mutation on the interaction recorded for R226C was with no effect
